Assay protocol: growth inhibition of non-replicating M. tuberculosis (AID 488890);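 note: plate controls were DMSO cells for no effect and high antibiotic wells for full effect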
Stated conditions: Mycobacterium tuberculosis non-replicating, at 25 µM, stronger effect = higher value
The whole screen tested about 320,000 compounds, of which about 1,300 (0.41%) were called active. Another 3% or so got no clear call; they are omitted. These entries were drawn from the full list. Results with a measured potency or affinity are listed apart.
# inhibition values compiled below
Write it as a number; the unit % goes unstated.

• O=C(OCc1nnc(-c2ccccc2)o1)c1ccco1 = 76.9
• O=C(OCC#CCSc1nnc(-c2cccc3ccccc23)o1)c1cc2ccccc2o1 = 71.3
• O=C(/C=C/c1ccc(Br)cc1)Nc1ccc(S(=O)(=O)Nc2ncccn2)cc1 = 21.5
• Cc1ccc(-c2nnc(COC(=O)c3ccco3)o2)cc1 = 60.2

Consider the record given below.
[Q] Suppose we examine the compound "CCN(CC)C(=O)CSc1nc2c(c(-c3cccnc3)c1C#N)CCCC2" ; what inhibition value has been reported?
[A] 24

###

# inhibition values compiled below
Assay protocol: growth inhibition of non-replicating M. tuberculosis (AID 488890);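 note: plate controls were DMSO cells for no effect and high antibiotic wells for full effect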
Stated conditions: Mycobacterium tuberculosis non-replicating, at 25 µM, stronger effect = higher value
The campaign covered roughly 320,000 compounds. About 1,300 (0.41%) were called active. Inconclusive results (about 3%) are left out. A selection follows. Results with a measured potency or affinity are listed apart.
Write it as a number; the unit % goes unstated.

The cases that follow already have their inhibition on record.
• COc1ccc2nc(NC(=O)c3ccccc3-c3ccccc3C(=O)O)sc2c1 = 76.6
• Cc1ccc(CNc2ccc([N+](=O)[O-])cc2C(N)=O)cc1 = -0.61
• CCOc1ccccc1C(=O)N/N=C/c1cccc2cccnc12 = 78.1
• COc1cccc2cc(C(=O)NCc3ccc(Cl)cc3)c(=O)oc12 = 57.8
• C=CCn1c(CCNC(=O)c2cccs2)nnc1SCC(=O)Nc1cccc(Cl)c1C = 40.6
• CN(CC(=O)Nc1ccccc1Br)C(=O)CCc1ccccc1 = 6.37
• CC(=O)Nc1ccccc1Sc1ccccc1 = -2.8
• Cc1ccc(C(=O)O)c(C(=O)Nc2nc3ccccc3s2)c1 = 11.2
• COc1cc(OC)cc(C(C(=O)NC2CCCCC2)N(C(=O)c2ccno2)c2ccccc2)c1 (stereo not drawn) = 8.21
• COc1cccc(/C=N/NC(=O)COc2cccc3cccnc23)c1O = 22.2

[Q] Suppose we examine the compound N#Cc1ccc(C23CC4(C2)[C@H](CN(Cc2ccc(C(F)(F)F)cc2)[C@@H]4c2ccccc2)C3c2ccccc2)cc1 (stereo partly drawn) ; what inhibition value has been reported?
[A] 19.2

[Q] Suppose we examine the compound "Cc1cccc(C(=O)N/N=C2\CS(=O)(=O)N(C)c3ccsc32)c1" ; what inhibition value has been reported?
[A] 56.1

[Q] Suppose we examine the compound "CN1c2ccsc2/C(=N/NC(=O)c2c(F)cccc2F)CS1(=O)=O" ; what inhibition value has been reported?
[A] -25.7

###

# inhibition values compiled below
Assay protocol: growth inhibition of non-replicating M. tuberculosis (AID 488890);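 note: plate controls were DMSO cells for no effect and high antibiotic wells for full effect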
Stated conditions: Mycobacterium tuberculosis non-replicating, at 25 µM, stronger effect = higher value
Out of some 320,000 compounds screened, about 1,300 (0.41%) were called active. Roughly 3% stayed inconclusive and do not appear here. Only a sample is shown. Results with a measured potency or affinity are listed apart.
Write it as a number; the unit % goes unstated.

• COc1cccc(N2CCN(CC(=O)Nc3nnc(-c4ccccc4)s3)CC2)c1 = 29.2
• O=C(c1c(O)c2ccccc2oc1=O)C1CCC1 = 39
• CNc1ccc(C2(O)C(=O)c3ccccc3C2=O)cc1 = 50.8
• O=C(CN1CCN(c2ccccc2)CC1)Nc1nccs1 = 5.49
• CC(=N)c1c(O)c2ccccc2oc1=O = -3.72

[Q] Suppose we examine the compound "COc1ccc(CNC(=O)CN(C(=O)CCC(=O)Nc2ccccn2)c2ccccc2OC)cc1" ; what inhibition value has been reported?
[A] 10.4
